target: Adenosine receptor A3 (Homo sapiens); experiment: Displacement of [3H]MRE3008-F20 from human Adenosine A3 receptor expressed in HEK cells; range 0.22-0.40; format: cell-based, HEK293
OBSERVED_PROPERTY: pKi
One number for each entry, as −log10 of the molar value.

Return the recorded pKi value; entry: CCCn1cc2c(nc(NC(=O)Nc3ccc4c(c3)OCO4)n3nc(-c4ccco4)nc23)n1
9.52

====

target: Adenosine receptor A2a (Homo sapiens); test: Displacement of [3H]SCH-58261 from human Adenosine A2A receptor expressed in HEK293 cells; range 8-18; format: cell-based
Sequence (P29274 whole entry): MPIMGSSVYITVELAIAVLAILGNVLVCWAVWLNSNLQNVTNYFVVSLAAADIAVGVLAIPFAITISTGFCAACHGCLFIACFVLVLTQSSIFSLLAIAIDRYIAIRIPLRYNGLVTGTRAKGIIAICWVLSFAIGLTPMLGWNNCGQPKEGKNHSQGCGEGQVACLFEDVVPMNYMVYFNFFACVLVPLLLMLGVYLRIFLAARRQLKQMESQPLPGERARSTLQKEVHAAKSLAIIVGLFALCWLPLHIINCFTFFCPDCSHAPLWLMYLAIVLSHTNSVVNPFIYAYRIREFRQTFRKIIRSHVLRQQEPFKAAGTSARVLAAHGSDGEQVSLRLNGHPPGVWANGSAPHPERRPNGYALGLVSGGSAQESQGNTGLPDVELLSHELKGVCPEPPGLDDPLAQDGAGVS
OBSERVED_PROPERTY: Ki (nM)
Give bare numbers, in nM.

Return the recorded Ki value; entry: CCCn1cc2c(nc(NC(=O)Nc3ccc(C)cc3)n3nc(-c4ccco4)nc23)n1
12

====

Molecular target: UniProtKB P0DMS8
Sequence (P0DMS8 whole entry): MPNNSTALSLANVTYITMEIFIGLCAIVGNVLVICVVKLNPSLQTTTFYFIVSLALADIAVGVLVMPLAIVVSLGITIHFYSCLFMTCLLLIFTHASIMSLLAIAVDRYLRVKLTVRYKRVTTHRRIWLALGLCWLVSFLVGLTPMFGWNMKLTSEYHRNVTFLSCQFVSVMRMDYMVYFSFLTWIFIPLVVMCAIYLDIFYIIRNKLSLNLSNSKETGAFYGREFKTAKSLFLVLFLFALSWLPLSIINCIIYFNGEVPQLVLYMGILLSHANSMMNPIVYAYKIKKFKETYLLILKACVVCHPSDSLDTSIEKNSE
Test: Displacement of [3H]MRE3008-F20 from human Adenosine A3 receptor expressed in HEK cells; range 0.59-0.83
Assay type: cell-based, HEK293
OBSERVED_PROPERTY: Ki (nM)
Answers are plain numbers, in nM.

Return the recorded Ki value; entry: COc1ccccc1NC(=O)Nc1nc2nn(C)cc2c2nc(-c3ccco3)nn12
0.7

====

biological target: UniProt P29274; experiment: Displacement of [3H]SCH-58261 from human Adenosine A2A receptor expressed in HEK293 cells; […]; format: cell-based
OBSERVED_PROPERTY: pKi
Numbers only, as −log10 of the molar value.

Specify pKi for CCCCn1cc2c(nc(NC(=O)Nc3ccc(Br)cc3)n3nc(-c4ccco4)nc23)n1 , system UniProt P29274.
7.18

====

molecular target: Adenosine receptor A3 (Homo sapiens); test: biochemical
Description: Displacement of [3H]MRE3008-F20 from human Adenosine A3 receptor expressed in HEK cells; range 0.21-0.28
OBSERVED_PROPERTY: Ki
The answer consists of two parts: a number and, after it, its unit.

Return the recorded Ki value; entry: Cn1cc2c(nc(NC(=O)Nc3ccc4c(c3)OCO4)n3nc(-c4ccco4)nc23)n1
240 pM

====

Target: Adenosine receptor A3 (Homo sapiens)
Sequence (P0DMS8 whole entry): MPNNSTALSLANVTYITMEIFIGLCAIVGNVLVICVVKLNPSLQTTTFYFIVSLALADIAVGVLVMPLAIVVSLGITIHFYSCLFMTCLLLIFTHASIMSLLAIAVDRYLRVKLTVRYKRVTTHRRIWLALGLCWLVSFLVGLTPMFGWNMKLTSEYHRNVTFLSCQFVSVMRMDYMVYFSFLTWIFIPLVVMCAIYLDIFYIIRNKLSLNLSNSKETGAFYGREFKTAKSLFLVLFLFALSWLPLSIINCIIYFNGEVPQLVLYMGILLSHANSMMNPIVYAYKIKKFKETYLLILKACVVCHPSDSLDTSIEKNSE
Assay: Displacement of [3H]MRE3008-F20 from human Adenosine A3 receptor expressed in HEK cells; range 0.13-0.20
Type: cell-based, HEK293
OBSERVED_PROPERTY: pKi
Answers are plain numbers, as −log10 of the molar value.

Return the recorded pKi value; entry: Cn1cc2c(nc(NC(=O)Nc3ccccc3)n3nc(-c4ccco4)nc23)n1
9.80
